- Measured target: hTGR5 (Homo sapiens, UniProt Q8TDU6)
- Construct: expressed in transfected cells; host or cells: HEK293 cells, transiently co-transfected with the pCRE TA-Luciferase reporter
- Sequence (Q8TDU6 whole entry): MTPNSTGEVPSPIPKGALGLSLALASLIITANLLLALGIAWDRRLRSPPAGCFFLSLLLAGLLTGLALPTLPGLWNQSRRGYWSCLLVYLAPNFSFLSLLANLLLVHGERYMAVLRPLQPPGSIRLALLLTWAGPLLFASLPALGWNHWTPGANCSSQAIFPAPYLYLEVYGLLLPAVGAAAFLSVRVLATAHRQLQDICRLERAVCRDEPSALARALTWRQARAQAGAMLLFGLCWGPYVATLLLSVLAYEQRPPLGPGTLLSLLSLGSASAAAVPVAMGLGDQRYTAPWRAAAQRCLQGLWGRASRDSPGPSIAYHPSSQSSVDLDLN
- Method notes: TGR5/CRE Luciferase Assay (hTGR5)
- Assay type: cell-based
- Details: percentage of the 10 μM LCA value; HEK 293 cells transfected with hTGR5
The reader will find reported hTGR5 % trans values listed item by item below.
Quantity kind: hTGR5 % trans (%)

[[record]]
molecule = "CC1=C(C(=O)OCc2ccc(OCCCCS(=O)(=O)O)cc2)[C@H](c2ccc(Cl)cc2)CC(=O)N1C[C@H]1CCCO1"
reported_measurement = 103

[[record]]
molecule = "CN1C=C(C(=O)NCc2ccccc2)C(c2ccc(Cl)cc2)CC1=O (centres unmarked)"
reported_measurement = 10

[[record]]
molecule = "COc1ccccc1COC(=O)C1=C(C)N(C[C@@H]2CCCO2)C(=O)C[C@H]1c1ccc(Cl)nc1 [Example 163]"
reported_measurement = 105

[[record]]
molecule = "COCCN1C(=O)CC(c2ccc(Cl)cc2)C(C(=O)OCc2cccc(C(=O)OC)c2)=C1C (centres unmarked)"
reported_measurement = 63

[[record]]
molecule = "COCCN1C(=O)CC(c2ccc(Cl)cc2)C(C(=O)OCc2ccccc2C#N)=C1C (centres unmarked)"
reported_measurement = 58

[[record]]
molecule = "COCCN1C(=O)CC(c2ccc(Cl)cc2)C(C(=O)OCc2cccc(C#N)c2)=C1C (centres unmarked)"
reported_measurement = 61

[[record]]
molecule = "CCCC1CC(=O)N(CCOC)C(C)=C1C(=O)OCc1ccccc1OC (centres unmarked)"
reported_measurement = 51

[[record]]
molecule = "COCCN1C(=O)CC(c2ccc(Cl)cc2)C(C(=O)OCc2ccc(C#N)cc2)=C1C (centres unmarked)"
reported_measurement = 78


Reference source for all entries: patent US9932309B2
